test: method code SF-AS, from DOI: 10.1007/bf01990207, PMID: 819289; details: pH 7.4
readout_name: logD

input_smiles | readout_name | test_result
CCCCCCNC(=O)CNC(=O)C=[N+]=[N-] | logD | 1.51

====

test: method code SF, from DOI: 10.1007/bf01990207, PMID: 819289; details: pH 7.4

input_smiles | logD
CNC(=O)CNC(=O)C=[N+]=[N-] | -0.87
CCNC(=O)CNC(=O)C=[N+]=[N-] | -0.62
[N-]=[N+]=CC(=O)NCC(=O)NCCO | -1.35
CC(C)NC(=O)CNC(=O)C=[N+]=[N-] | -0.41
CC(C)CNC(=O)CNC(=O)C=[N+]=[N-] | 0.37
[N-]=[N+]=CC(=O)NCC(=O)NN | -0.76
[N-]=[N+]=CC(=O)NCC(N)=O | -1.26
CCCNC(=O)CNC(=O)C=[N+]=[N-] | -0.24
CCOC(=O)CNC(=O)C=[N+]=[N-] | -0.08
